experiment: chemical genetic growth profiling, strain panel (AID 1159580);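 note: tested at 20 µM; growth read once vehicle control cultures reached saturation at 30 °C; 1 = growth at the plate median or of vehicle wells; lower values mean less growth of the strain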; settings: S. cerevisiae deletion strains, growth OD, locus YOR119C, strain RIO1
The campaign covered roughly 5,500 compounds. About 2,000 (36%) were called active. Inconclusive results (about 18%) are left out. Cut-off read from the data, not from the text of the source: active = normalized growth mostly below about 0.91 (no sharp cut-off); inconclusive = no clear call, values can overlap the other calls; inactive = mostly above about 0.92. Some of the results follow.
Answer with one of the outcomes active, inactive

• COc1c(Br)csc1C(=O)O/N=C(/N)c1cc(C(F)(F)F)cc(C(F)(F)F)c1 = inactive

Outcome? "CCOC(=O)/C(C#N)=C(\Nc1ccc(C(=O)OCC)cc1)SC"
inactive

Outcome? O=[N+]([O-])c1cccc(C2CC(c3ccccc3)=Nc3ccccc3S2)c1 (stereo unspecified)
inactive

Outcome? "CC(C)(C)c1cc(C(=O)Nc2ccc3c(c2)OCO3)n(Cc2ccc(F)cc2)n1"
inactive

Outcome? O=C(CSC1=NNC(c2ccccn2)S1)Nc1ccccc1 (stereo unspecified)
inactive

Outcome? "O=C(Nc1ccc(F)cc1F)c1cc(Cl)c(-n2cccc2)c(Cl)c1"
inactive

Outcome? "COC(=O)c1sccc1NS(=O)(=O)c1cc(Cl)cc(Cl)c1"
inactive

---

Quick reference for normalized growth among some compounds
assay: chemical genetic growth profiling, strain panel (AID 1159580);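 note: tested at 20 µM; growth read once vehicle control cultures reached saturation at 30 °C; 1 = growth at the plate median or of vehicle wells; lower values mean less growth of the strain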; conditions: S. cerevisiae deletion strains, growth OD, locus YHR027C, strain rpn1, stronger effect = lower value
Out of some 5,500 compounds screened, about 2,000 (36%) were called active. Inconclusive results (about 18%) are left out. The list shows a part of the results.
Write the value as a bare number.

Which measured normalized growth value corresponds to "O=C(O)c1cc(O)c2c(c1)[C@@H]([C@H]1c3cc(C(=O)O)cc(O)c3C(=O)c3c(O[C@H]4O[C@H](CO)[C@@H](O)[C@H](O)[C@H]4O)cccc31)c1cccc(O[C@H]3O[C@H](CO)[C@@H](O)[C@H](O)[C@H]3O)c1C2=O" ?
1.05

Which measured normalized growth value corresponds to "COC(=O)/C(=C1\OC(=O)C(c2ccccc2)=C1O)c1ccccc1" ?
0.976

Which measured normalized growth value corresponds to NCC(N)C(=O)c1ccccc1 (centres undefined) ?
1.04

Which measured normalized growth value corresponds to "CC(C)C[C@@H](CN)CC(=O)O" ?
1.01

Which measured normalized growth value corresponds to "O=C(O)c1cccnc1" ?
1.01

Which measured normalized growth value corresponds to "CC(=O)Oc1cccc(O)c1" ?
1.02

---

test: chemical genetic growth profiling, strain panel (AID 1159580);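 note: tested at 20 µM; growth read once vehicle control cultures reached saturation at 30 °C; 1 = growth at the plate median or of vehicle wells; lower values mean less growth of the strain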; conditions: S. cerevisiae deletion strains, growth OD, locus YER155C, strain BEM2, stronger effect = lower value
The campaign covered roughly 5,500 compounds. About 2,000 (36%) were called active. Another 18% or so got no clear call; they are omitted. Some of the results follow.
Quick reference for normalized growth among some molecules
Write the value as a bare number.

Worked examples, 3 molecules total:
- CO[C@H]1CC(O[C@@H]2/C(C)=C/C[C@@H]3C[C@@H](C[C@]4(CC[C@H](C)[C@@H](C5CCCCC5)O4)O3)OC(=O)[C@@H]3C=C(C)/C(=N\O)[C@H]4OC/C(=C\C=C\[C@@H]2C)[C@]43O)O[C@@H](C)C1O (stereo partly specified): 1.02
- CC(=O)OCC(=O)[C@@]1(O)[C@H](C)CC2C3CCC4=CC(=O)C=C[C@]4(C)[C@@]3(F)[C@@H](O)C[C@@]21C (stereo partly specified): 0.999
- COC(=O)c1c(OC)cc2c(c1C)Oc1c(Cl)c(O)c(Cl)c(C)c1C(=O)O2: 0.949

Which measured normalized growth value corresponds to "CC(=O)Oc1c(Cl)c(C)c2c(c1Cl)OC(=O)c1c(C)c(Cl)c(OC(C)=O)c(Cl)c1O2" ?
0.91

Which measured normalized growth value corresponds to "CCCN(CCC)S(=O)(=O)c1ccc(C(=O)O)cc1" ?
1.01

Which measured normalized growth value corresponds to "O=C(O)c1ccc(S(=O)(=O)N(Cl)Cl)cc1" ?
0.992

Which measured normalized growth value corresponds to "O=C(O)c1cccnc1" ?
1.02

Which measured normalized growth value corresponds to "O=C(OCc1ccccc1)c1ccccc1" ?
0.98

Which measured normalized growth value corresponds to CCC(C)[C@H]1O[C@]2(C=C[C@@H]1C)C[C@@H]1C[C@@H](C/C=C(\C)[C@@H](OC3C[C@H](OC)C(O[C@H]4C[C@H](OC)[C@@H](O)[C@H](C)O4)[C@H](C)O3)[C@@H](C)/C=C/C=C3\CO[C@@H]4[C@H](O)C(C)=C[C@@H](C(=O)O1)[C@]34O)O2 (stereo partly specified) ?
0.966

Which measured normalized growth value corresponds to "NC(=O)NC(=O)Cc1ccccc1" ?
1

Which measured normalized growth value corresponds to "Nc1ccc(C(=O)O)cc1" ?
0.994

Which measured normalized growth value corresponds to "C[n+]1ccccc1/C=N/O" ?
0.998
